# STUDY_SYSTEM: α-glucosidase
# METHOD_SUMMARY: α-glucosidase inhibition assay (PNPG hydrolysis, absorbance at 405 nm)
# Format: biochemical
# CONDITION_SET: α-glucosidase 0.2 U/mL, phosphate buffer pH 6.8, 37° C., PNPG substrate; IC50 calculated with SPSS; read-out: α-glucosidase inhibitory activity IC50
As shown below, each of these molecules has a reported pIC50 value.
Would you please state pIC50, meaning minus log10 of the concentration in mol/L, as a bare number?

Below: 2 molecules and their reported pIC50.
MOLECULE: O=c1c(O)c(-c2cc(O)c(O)c(O)c2)oc2cc(O)cc(O)c12 [myricetin]
METRIC_NAME: pIC50
NUMBER: 5.75

MOLECULE: CC1OC(Oc2c(-c3cc(O)c(O)c(O)c3)oc3cc(O)cc(O)c3c2=O)C(O)C(O)C1OC(=O)c1cc(O)c(O)c(O)c1 (stereo not drawn)
METRIC_NAME: pIC50
NUMBER: 5.75

# evaluate next
Exercise: Name the recorded pIC50 for CC1OC(Oc2c(-c3cc(O)c(O)c(O)c3)oc3cc(O)cc(O)c3c2=O)C(OC(=O)c2cc(O)c(O)c(O)c2)C(O)C1O (stereo not drawn) .
Solution: 5.88

Hey, just so you know, these numbers are from patent US20250026776A1.
